List of Test B rating (% disease control) values.
# Tested on: Puccinia recondite f. sp. tritici
# ASSAY DETAILS: Test B: wheat leaf rust, preventive spray on wheat seedlings, visual disease rating
# Type: in vivo
# RECORDED CONDITIONS: 200 ppm, 100 = 100% disease control, 0 = no control
Hi! Could you send only the number? It should be in %, unit omitted.

Sample records with Test B rating (% disease control):
Qu. Consider the compound COc1ccc(-c2c(C)ncc(C(C)C)c2-c2cc(OC)cc(OC)c2)cc1 tested on Puccinia recondite f. sp. tritici; state its Test B rating (% disease control).
Ans. 98

Qu. Consider the compound CCOC(=O)c1cnc(C)c(-c2c(F)cc(OC)cc2F)c1-c1cc(OC)cc(OC)c1 tested on Puccinia recondite f. sp. tritici; state its Test B rating (% disease control).
Ans. 95

Qu. Consider the compound COc1ccc(-c2c(C)ncc(C(C)=O)c2-c2cc(OC)cc(OC)c2)cc1 tested on Puccinia recondite f. sp. tritici; state its Test B rating (% disease control).
Ans. 99

Now look at this one.
Qu. Consider the compound C=C(C)c1cnc(C)c(-c2c(F)cc(OC)cc2F)c1-c1cc(OC)cc(OC)c1 tested on Puccinia recondite f. sp. tritici; state its Test B rating (% disease control).
Ans. 100
